METHOD NOTES: self-splicing fitness, log relative to wild type (ln ratio); higher = more splicing; Tetrahymena group I intron in knt gene, E. coli kanamycin selection, DiMSum; sequences stand for … in CUCUCU…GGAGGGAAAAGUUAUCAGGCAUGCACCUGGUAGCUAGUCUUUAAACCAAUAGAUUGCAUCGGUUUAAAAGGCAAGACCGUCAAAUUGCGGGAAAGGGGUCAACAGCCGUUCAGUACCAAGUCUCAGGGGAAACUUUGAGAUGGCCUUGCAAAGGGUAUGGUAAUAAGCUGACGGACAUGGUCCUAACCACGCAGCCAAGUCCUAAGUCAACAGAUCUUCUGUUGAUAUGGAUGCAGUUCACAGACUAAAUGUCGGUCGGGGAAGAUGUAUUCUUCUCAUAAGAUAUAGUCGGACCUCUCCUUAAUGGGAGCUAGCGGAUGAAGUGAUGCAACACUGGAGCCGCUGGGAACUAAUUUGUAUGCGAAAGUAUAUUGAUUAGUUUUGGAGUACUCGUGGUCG;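 further: selection with 25 µg/mL kanamycin versus none on LB agar overnight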
DETAILS: 37 °C
Please mark 1 (yes) if the recorded self-splicing fitness (ln) is equal to or greater than -1, and 0 (no) if it falls below.

| SEQUENCE TEXT | ASSIGNED LABEL |
| --- | --- |
| UUUCAGCAAUAUUACGUUAA | 0 (no) |
| UAGAAGCAAUAUUACGUGUG | 1 (yes) |
| ACCCAGCAAUAUUACGGGGG | 0 (no) |
| GUACAGCAAUAUUACGGCGG | 0 (no) |
| AAUUAGCAAUAUUACGUAAG | 1 (yes) |
| UUCGAGCAAUAUUACGUGUU | 0 (no) |
| AAGAAGCAAUAUUACGAAGC | 0 (no) |
| UUCAAGCAAUAUUACGAGAC | 0 (no) |
| GCGUAGCAAUAUUACGUCUA | 1 (yes) |
| CGAAAGCAAUAUUACGCCGC | 0 (no) |
| CAGUAGCAAUAUUACGUUAU | 0 (no) |
| CGCGAGCAAUAUUACGGGCG | 0 (no) |
| CACAAGCAAUAUUACGACCA | 0 (no) |
| ACUAAGCAAUAUUACGUUUA | 0 (no) |

----------
METHOD NOTES: self-splicing fitness, log relative to wild type (ln ratio); higher = more splicing; Tetrahymena group I intron in knt gene, E. coli kanamycin selection, DiMSum; sequences stand for … in CUCUCU…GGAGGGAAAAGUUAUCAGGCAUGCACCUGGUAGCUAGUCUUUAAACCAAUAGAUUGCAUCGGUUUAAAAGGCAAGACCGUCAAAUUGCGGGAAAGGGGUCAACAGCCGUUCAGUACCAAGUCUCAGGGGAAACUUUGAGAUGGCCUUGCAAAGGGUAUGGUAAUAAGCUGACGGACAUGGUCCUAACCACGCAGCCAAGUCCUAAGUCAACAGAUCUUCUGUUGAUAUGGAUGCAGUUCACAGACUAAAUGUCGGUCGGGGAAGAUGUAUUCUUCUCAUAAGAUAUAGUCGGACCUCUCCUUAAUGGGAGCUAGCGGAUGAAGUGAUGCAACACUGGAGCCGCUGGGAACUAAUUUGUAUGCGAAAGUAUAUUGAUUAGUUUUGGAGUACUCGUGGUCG
DETAILS: 30 °C
MEASURED QUANTITY: self-splicing fitness (ln)

| SEQUENCE TEXT | MEASURED QUANTITY | RESULT VALUE |
| --- | --- | --- |
| AUCAAGCAAUAUUACGACAC | self-splicing fitness (ln) | -1.45 |
| ACGAAGCAAUAUUACGUCUC | self-splicing fitness (ln) | -3.62 |
| GAGCAGCAAUAUUACGGAAC | self-splicing fitness (ln) | -3.14 |
| AUCCAGCAAUAUUACGUCUA | self-splicing fitness (ln) | -0.908 |
| GUGCAGCAAUAUUACGUCUA | self-splicing fitness (ln) | -0.238 |
| GAUCAGCAAUAUUACGGGUG | self-splicing fitness (ln) | -0.356 |
| UGAGAGCAAUAUUACGGUAG | self-splicing fitness (ln) | -3.74 |
| GUUAAGCAAUAUUACGCGCC | self-splicing fitness (ln) | -2.44 |
| AAGAAGCAAUAUUACGAAAA | self-splicing fitness (ln) | -1.8 |
| ACUCAGCAAUAUUACGGGUA | self-splicing fitness (ln) | -1.57 |
| CGGAAGCAAUAUUACGAGGU | self-splicing fitness (ln) | -4.22 |
| GAACAGCAAUAUUACGACUA | self-splicing fitness (ln) | -0.346 |
| ACGUAGCAAUAUUACGGAAC | self-splicing fitness (ln) | -2.09 |
| AAUGAGCAAUAUUACGGUCU | self-splicing fitness (ln) | -1.96 |
| CCUAAGCAAUAUUACGUGUU | self-splicing fitness (ln) | -3.2 |
| UUGUAGCAAUAUUACGGAGG | self-splicing fitness (ln) | -3.76 |

----------
METHOD NOTES: self-splicing fitness, log relative to wild type (ln ratio); higher = more splicing; Tetrahymena group I intron in knt gene, E. coli kanamycin selection, DiMSum; sequences stand for … in CUCUCU…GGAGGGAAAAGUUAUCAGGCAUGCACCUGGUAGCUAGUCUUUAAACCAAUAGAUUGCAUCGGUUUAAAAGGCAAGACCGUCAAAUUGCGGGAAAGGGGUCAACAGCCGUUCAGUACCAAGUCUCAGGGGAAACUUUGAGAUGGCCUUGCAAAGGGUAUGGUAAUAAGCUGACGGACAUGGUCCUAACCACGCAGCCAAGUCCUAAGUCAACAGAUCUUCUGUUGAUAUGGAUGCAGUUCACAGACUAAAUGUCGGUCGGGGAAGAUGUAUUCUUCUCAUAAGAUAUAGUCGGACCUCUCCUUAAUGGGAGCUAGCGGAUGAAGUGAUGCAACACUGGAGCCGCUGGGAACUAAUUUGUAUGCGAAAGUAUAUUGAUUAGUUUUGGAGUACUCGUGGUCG
DETAILS: 37 °C

| SEQUENCE TEXT | self-splicing fitness (ln) |
| --- | --- |
| AUAAAGCAAUAUUACGACGG | -0.375 |
| UAAUAGCAAUAUUACGCUGA | -1.23 |
| UUAUAGCAAUAUUACGGAGU | -2.15 |
| CAGGAGCAAUAUUACGCGUU | -2.01 |
| CUAUAGCAAUAUUACGAAUC | -1.9 |
| UCUGAGCAAUAUUACGUCAG | -0.513 |
| GAGCAGCAAUAUUACGGACC | -0.206 |
| UGAAAGCAAUAUUACGGAUC | -2.83 |
| UCCAAGCAAUAUUACGCGAG | -2.93 |
| ACGUAGCAAUAUUACGCAAU | -1.53 |
| GAGAAGCAAUAUUACGCUCG | 0.735 |
| GUAAAGCAAUAUUACGAACU | -0.0974 |
| AAUUAGCAAUAUUACGUGCG | -0.209 |
| CCGAAGCAAUAUUACGGUAU | -3.64 |
| UGCCAGCAAUAUUACGGAAA | -0.0875 |
| UCCGAGCAAUAUUACGCUUC | -2.37 |

----------
METHOD NOTES: self-splicing fitness, log relative to wild type (ln ratio); higher = more splicing; Tetrahymena group I intron in knt gene, E. coli kanamycin selection, DiMSum; sequences stand for … in CUCUCU…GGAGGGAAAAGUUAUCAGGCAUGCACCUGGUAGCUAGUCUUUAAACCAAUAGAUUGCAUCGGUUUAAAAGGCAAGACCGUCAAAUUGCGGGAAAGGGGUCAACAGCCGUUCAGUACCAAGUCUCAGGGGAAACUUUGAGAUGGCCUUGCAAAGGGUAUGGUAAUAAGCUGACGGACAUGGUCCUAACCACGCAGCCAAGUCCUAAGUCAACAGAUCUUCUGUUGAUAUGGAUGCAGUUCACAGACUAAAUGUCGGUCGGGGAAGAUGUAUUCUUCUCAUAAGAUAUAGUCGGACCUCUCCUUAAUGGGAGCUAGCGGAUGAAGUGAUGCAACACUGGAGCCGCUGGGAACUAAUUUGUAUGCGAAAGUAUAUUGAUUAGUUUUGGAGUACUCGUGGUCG
DETAILS: 30 °C
Recorded measurements of self-splicing fitness (ln), one per entry

| SEQUENCE TEXT | self-splicing fitness (ln) |
| --- | --- |
| UCUGAGCAAUAUUACGUGAC | -2.99 |
| CGGAAGCAAUAUUACGUAUC | -3.82 |
| CUGUAGCAAUAUUACGGAAU | -2.18 |
| CACGAGCAAUAUUACGGUCA | -4.22 |
| GUGGAGCAAUAUUACGUUCU | -4.21 |
| UAGGAGCAAUAUUACGAACA | -2.08 |
| CUCGAGCAAUAUUACGUCAU | -4.1 |
| UGAUAGCAAUAUUACGGACA | -0.237 |
